- test.details: Cytotoxicity against human NCI-H322 spheroids assessed as reduction in cell viability measured after 96 hrs by CellTiter-Glo luminescence viability assay
- Assay type: functional
- experimental.context: NCI-H322, 96 h
pIC50: −log10 of the molar value.
quantity.measured: pIC50

>  <smiles.string>
C=C(C)[C@@H]1CC[C@]2(C)[C@H](C[C@@H](F)C34OC(=O)[C@@]5(CC[C@@H](C)[C@H](C)[C@@H]35)CC[C@]42C)[C@@]1(C)CCC(=O)NCC

>  <quantity.measured>
pIC50

>  <data.value>
4.94

$$$$
>  <smiles.string>
C=C(C)[C@@H]1CC[C@]2(C)[C@H](C[C@@H](F)C34OC(=O)[C@@]5(CC[C@@H](C)[C@H](C)[C@@H]35)CC[C@]42C)[C@@]1(C)CCC(=O)NC

>  <quantity.measured>
pIC50

>  <data.value>
4.92

$$$$
>  <smiles.string>
C[C@H]1[C@H](C)CC[C@]2(C(=O)O)CC[C@]3(C)C(=CC[C@@H]4[C@@]5(C)CC[C@H](O)C(C)(C)[C@@H]5CC[C@]43C)[C@H]12

>  <quantity.measured>
pIC50

>  <data.value>
4.74

$$$$
>  <smiles.string>
C=C(C)[C@@H]1CC[C@]2(C)[C@H](C[C@@H](F)C34OC(=O)[C@@]5(CC[C@@H](C)[C@H](C)[C@@H]35)CC[C@]42C)[C@@]1(C)CCC(=O)NCCC

>  <quantity.measured>
pIC50

>  <data.value>
5.00

$$$$
